- test_target: Corticotropin-releasing factor receptor 2/Corticotropin-releasing factor-binding protein (Homo sapiens, UniProt P24387+Q13324)
- Sequence (Q13324 whole entry): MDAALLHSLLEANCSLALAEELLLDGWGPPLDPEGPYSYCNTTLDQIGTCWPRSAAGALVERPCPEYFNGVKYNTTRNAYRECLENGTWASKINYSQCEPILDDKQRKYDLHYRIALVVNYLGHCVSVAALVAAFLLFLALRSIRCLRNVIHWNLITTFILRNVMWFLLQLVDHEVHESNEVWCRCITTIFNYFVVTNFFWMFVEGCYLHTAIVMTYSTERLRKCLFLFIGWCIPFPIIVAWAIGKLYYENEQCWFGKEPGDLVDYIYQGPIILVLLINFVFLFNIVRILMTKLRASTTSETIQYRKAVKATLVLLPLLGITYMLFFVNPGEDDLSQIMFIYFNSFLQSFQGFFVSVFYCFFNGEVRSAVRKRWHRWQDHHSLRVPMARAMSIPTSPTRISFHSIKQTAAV
- Sequence (P24387 whole entry): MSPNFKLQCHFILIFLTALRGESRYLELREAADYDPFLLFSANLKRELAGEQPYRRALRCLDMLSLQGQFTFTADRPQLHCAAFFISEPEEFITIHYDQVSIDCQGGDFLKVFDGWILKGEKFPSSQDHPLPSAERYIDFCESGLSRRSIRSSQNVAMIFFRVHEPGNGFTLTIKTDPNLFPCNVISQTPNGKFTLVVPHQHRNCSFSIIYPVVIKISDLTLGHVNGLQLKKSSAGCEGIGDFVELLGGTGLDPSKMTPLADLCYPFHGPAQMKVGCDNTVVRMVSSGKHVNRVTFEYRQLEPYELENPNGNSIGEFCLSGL
- method_description: activators of CRF receptor 2 with binding protein – uHTS hits, confirmation (AID 602473)
- Type: functional
- conditions: read-out: EC50_Mean
The source made the active and inactive calls. No stated cut-off is given here; in the data, actives have a measured EC50 and inactives only a lower limit.
The categories you may choose from are y (active), n (inactive)

Take a look at these entries with their results.
COc1ccnc(CSC(=N)Nc2ccc(F)cc2)c1	y
Cc1nn(-c2cccc(Cl)c2)c2nc(C(F)(F)F)[nH]c(=O)c12	n

Can you look up the reported call for "COc1cc(/C=C2\C(=N)N3C(=NC2=O)Sc2cc(S(C)(=O)=O)ccc23)ccc1O" for me?
y

// repeat for "CCOC(=O)c1c(N)sc(C(=O)N2CCCCC2)c1C" and report
n

// repeat for Cc1ccc(NS(=O)(=O)c2ccc(C(=O)N3CCCC(C(F)(F)F)C3)cc2)cc1 (configuration not stated) and report
y

// repeat for "Cc1cc(-c2cccs2)c2c(N)c(C(=O)c3ccc4c(c3)OCO4)sc2n1" and report
y

// repeat for "Cc1cc(C)nc(NC(N)=Nc2ccc(CC(=O)OC(C)C)cc2)n1" and report
y

----------
Reported EC50 values follow for various molecules
- Tested on: Streptococcus sp. 'group A'
- method_description: growth inhibition of control SK(-) GAS strain, dose response, counter-screen for streptokinase expression inhibitor project, luminescence, kanamycin, BacTiterGlo, confirmation (AID 1900)
- Format: functional, organism-based
Activity calls are given as the source filed them. Rule as the data show it: actives have a measured EC50 and inactives only a lower limit.

# EC50 lookup, item "N#Cc1ccc(C(=O)Nc2nc(SCc3ccc(Cl)cc3)n[nH]2)cc1"
1.97 µM (active)

// repeat for "Cc1ccc(Oc2ccc3c(c2)C(=O)N(c2cccc4cccnc24)C3=O)cc1" and report
25.6 µM (active)

// repeat for "CSc1nnc2nc3c(c(O)n12)C1(CCCCC1)Cc1ccccc1-3" and report
7.86 µM (active)

// repeat for "Cc1cc(C)c(OCC(=O)N2CCN(c3ncc(C(F)(F)F)cc3Cl)CC2)c(C)c1" and report
12.8 µM (active)

// repeat for "Cc1ccccc1-n1cnc2cc(NCc3cccs3)ccc21" and report
16.8 µM (active)
